meta.source: patent US6177409A

test.name: in vivo
experimental.parameters: mouse, in vivo, ip, LD50
measured.attribute: LD50

Inquiry: Return LD50 for the following molecule: Cc1c(O)c(=O)ccn1CC1OC(C)(C)OC1C1COC(C)(C)O1 (stereo not shown) [Compound 10]
Reply text: > 650 mg/kg

---

test.name: in vivo
experimental.parameters: mouse, in vivo, 1300 mg/kg
measured.attribute: mortality (%)
Numbers only, in %.

Inquiry: Return mortality for the following compound: Cc1c(O)c(=O)ccn1C [Compound L1, 1.2-dimethyl-3-hydroxypyridine-4(1H)-one, reference compound]
Reply text: 100

---

Test system: mice
test.name: in vivo
experimental.parameters: mice
measured.attribute: toxicity compared with L1

compound: Cc1c(O)c(=O)ccn1C[C@H]1O[C@@H]2OC(C)(C)O[C@@H]2[C@H]1O [Compound 12]
result: less toxic than L1
//
compound: Cc1c(O)c(=O)ccn1CC(O)C(O)C(O)CO (stereo not shown) [Compound 17]
result: less toxic than L1
